- TGT: hGcgR (Homo sapiens, UniProt P47871)
- Sequence (P47871 26-477): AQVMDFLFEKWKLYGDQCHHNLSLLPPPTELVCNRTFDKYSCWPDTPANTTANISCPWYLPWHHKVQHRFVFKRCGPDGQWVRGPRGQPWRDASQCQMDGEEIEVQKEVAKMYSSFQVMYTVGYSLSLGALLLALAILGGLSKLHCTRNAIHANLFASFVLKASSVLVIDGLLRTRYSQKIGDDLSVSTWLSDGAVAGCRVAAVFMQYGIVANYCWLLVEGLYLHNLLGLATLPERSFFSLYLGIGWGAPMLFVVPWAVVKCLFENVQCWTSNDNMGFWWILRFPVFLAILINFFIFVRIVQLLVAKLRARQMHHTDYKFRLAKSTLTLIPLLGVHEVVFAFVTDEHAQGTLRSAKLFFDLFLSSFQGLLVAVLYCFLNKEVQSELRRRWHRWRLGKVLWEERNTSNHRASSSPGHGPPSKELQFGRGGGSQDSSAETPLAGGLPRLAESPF
- PROTOCOL_DESCRIPTION: Functional cAMP activation in the presence of 0.1% casein (no HSA);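 also: intracellular cAMP rise after 30 min at 37 °C, read by HTRF against a cAMP standard curve, scaled from buffer only (0%) to maximal control ligand response (100%)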
- Format: cell-based
- TEST_PARAMETERS: in the presence of 0.1% casein (no HSA); geometric mean; read-out: Relative cAMP EC50, hGcgR
Starred links: 1 amine or outer side, 2 acyl side, 3 side chain; linkers in the order of their positions; H or OH if unused. Non-standard residues stand in square brackets, D forms with d. Groups on a side chain read outwards from the residue. No end group written: not given here. *: point of attachment. C20 diacid = O=C(O)CCCCCCCCCCCCCCCCCCC(=O)*; C18 diacid = O=C(O)CCCCCCCCCCCCCCCCC(=O)*; αMePhe(2-F) = C[C@](N)(Cc1ccccc1F)C(=O)O; γGlu = O=C(O)[C@H](CCC(=O)[*:2])N[*:1]; αMe4Pal = C[C@](N)(Cc1ccncc1)C(=O)O; αMeY = C[C@](N)(Cc1ccc(O)cc1)C(=O)O; αMeF = C[C@](N)(Cc1ccccc1)C(=O)O; 4Pal = N[C@@H](Cc1ccncc1)C(=O)O; αMeL = CC(C)C[C@](C)(N)C(=O)O; αMeS = C[C@](N)(CO)C(=O)O; Orn = NCCC[C@H](N)C(=O)O; AEEA = NCCOCCOCC(=O)O; Aib = CC(C)(N)C(=O)O
EXPERIMENTAL_READOUT: pEC50
# reply with the number alone; pEC50 is -log10 of concentration in mol/L

substance="H-Y[Aib]QGTFTSDFS[Orn][αMeL]LDKK([AEEA-γGlu-C18 diacid])AQ[Aib]AFIEWLLEGGSSSGAPPPSGH-NH2 [Example 270]" experimental_readout=pEC50 reported_result=8.30
substance="H-Y[Aib]QGTFTSD[4Pal]SQ[αMeL]LD[Orn]K([AEEA-γGlu-C18 diacid])AQ[αMe4Pal]QFIE[αMeY]LIEGGPSSGAPPPSGSEE-NH2 [Example 1045]" experimental_readout=pEC50 reported_result=8.13
substance="H-Y[Aib]QGTFTSD[4Pal]SK[αMeL]LDKK([AEEA-γGlu-C18 diacid])AQ[Aib]AFIEYLIA[Aib]GESSGAPPPSGS-NH2 [Example 285]" experimental_readout=pEC50 reported_result=8.63

Problem: pEC50 of H-Y[Aib]QGTFTSDFSK[αMeL]LDKK([AEEA-γGlu-C20 diacid])AQ[Aib]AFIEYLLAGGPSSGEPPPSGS-NH2 [Example 8] on hGcgR (Homo sapiens, UniProt P47871)?
Result: 8.18

Problem: pEC50 of H-Y[Aib]QGTFTSD[4Pal]SQ[αMeL]LD[Orn]K([AEEA-γGlu-γGlu-C18 diacid])AQ[αMe4Pal]AFIEYLIE[dA]GPSSGEPPPSGS-NH2 [Example 1018] on hGcgR (Homo sapiens, UniProt P47871)?
Result: 8.28

Problem: pEC50 of H-Y[Aib]QGTFTSD[4Pal]S[Orn][αMeL]LDKK([γGlu-γGlu-C18 diacid])AQ[αMe4Pal]AFIE[αMe4Pal]LIE[Aib]GPSSGEPPPSGSE-NH2 [Example 990] on hGcgR (Homo sapiens, UniProt P47871)?
Result: 8.61

Problem: pEC50 of H-Y[Aib]QGTFTSD[4Pal]SQ[αMeL]LD[Orn]K([γGlu-γGlu-C18 diacid])AQ[αMe4Pal]QFIE[αMeY]LIEGGPSSGAPPPSGSEE-NH2 [Example 1046] on hGcgR (Homo sapiens, UniProt P47871)?
Result: 8.00

Problem: pEC50 of H-Y[Aib]QGTFTSDFSK[αMeL]LDKK([AEEA-γGlu-C18 diacid])AQ[Aib]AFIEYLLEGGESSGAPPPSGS-NH2 [Example 146] on hGcgR (Homo sapiens, UniProt P47871)?
Result: 8.69

Problem: pEC50 of H-Y[Aib]QGT[αMePhe(2-F)]TSDYSILLDKAAQK([AEEA-γGlu-C20 diacid])[Orn]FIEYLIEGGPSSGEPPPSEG-NH2 [Example 306] on hGcgR (Homo sapiens, UniProt P47871)?
Result: 8.24

Problem: pEC50 of H-Y[Aib]QGTFTSDFS[Orn][αMeL]LDKK([AEEA-AEEA-γGlu-C18 diacid])AQ[Aib]AFIEYLLEGGPSSGAPPPSGE-NH2 [Example 107] on hGcgR (Homo sapiens, UniProt P47871)?
Result: 7.97

Problem: pEC50 of Y[Aib]QGT[αMeF]TSD[4Pal][αMeS]I[αMeL]LD[Orn]K([AEEA-γGlu-C18 diacid])AQ[αMe4Pal]EFI[dE][αMeY]LIEGGPSSGAPPPSGGGE-NH2 [Example 1168] on hGcgR (Homo sapiens, UniProt P47871)?
Result: 8.58

Problem: pEC50 of Y[Aib]QGTFTSDFS[Orn][αMeL]LDKK([AEEA-γGlu-C18 diacid])AQ[Aib]AFIEYLIE[Aib]GPSSGAPPPSGS-NH2 [Example 796] on hGcgR (Homo sapiens, UniProt P47871)?
Result: 8.28

Problem: pEC50 of H-Y[Aib]QGTFTSD[4Pal]SQ[αMeL]LDKK([AEEA-γGlu-C18 diacid])AQ[αMe4Pal]AFIEYLIE[Aib]GPSSGAPPPSSS-NH2 [Example 848] on hGcgR (Homo sapiens, UniProt P47871)?
Result: 8.49

Problem: pEC50 of H-Y[Aib]QGTFTSDYSI[αMeL]LDKIAAK([AEEA-AEEA-γGlu-C20 diacid])QFVQWLIE[Aib]GPSSGEPPPSEG-NH2 [Example 323] on hGcgR (Homo sapiens, UniProt P47871)?
Result: 8.22

Problem: pEC50 of H-Y[Aib]QGTFTSD[4Pal]SQ[αMeL]LDKK([Glu-Glu-γGlu-C18 diacid])AQ[αMe4Pal]AFIEYLIAGGPSSGAPPPSGEEE-NH2 [Example 1090] on hGcgR (Homo sapiens, UniProt P47871)?
Result: 7.81

Problem: pEC50 of H-H[Aib]QGT[αMePhe(2-F)]TSDYSILLDKK([AEEA-γGlu-C20 diacid])AA[Aib]AFIEYLIETGPSSGEPPPSEG-NH2 [Example 290] on hGcgR (Homo sapiens, UniProt P47871)?
Result: 8.57

Problem: pEC50 of Y[Aib]QGTFTSD[4Pal]S[Orn][αMeL]LD[Orn]K([γGlu-γGlu-C18 diacid])AQ[αMe4Pal]AFIEYLIAGGPSSGAPPPSGSE-NH2 [Example 1011] on hGcgR (Homo sapiens, UniProt P47871)?
Result: 8.28

Problem: pEC50 of Y[Aib]QGTFTSD[4Pal]SQ[αMeL]LDKK([AEEA-γGlu-C18 diacid])AQ[αMe4Pal]AFIEYLIE[Aib]GPSSGAPPPSGS-NH2 [Example 810] on hGcgR (Homo sapiens, UniProt P47871)?
Result: 8.48

Problem: pEC50 of Y[Aib]QGTFTSD[4Pal]SQ[αMeL]LDKK([AEEA-γGlu-C18 diacid])AQ[Aib]AFIE[αMeY]LIEGGPSSGAPPPSGS-NH2 [Example 838] on hGcgR (Homo sapiens, UniProt P47871)?
Result: 7.68

Problem: pEC50 of H-Y[Aib]QGTFTSD[4Pal]SQ[αMeL]LDKK([AEEA-γGlu-C18 diacid])AQ[αMe4Pal]QFIE[αMeY]LIEGGPSSGAPPPSGS-NH2 [Example 855] on hGcgR (Homo sapiens, UniProt P47871)?
Result: 8.57
